Data origin, for the record: ChEMBL document CHEMBL4020842

# experimental target: Aurora kinase B/Inner centromere protein (Homo sapiens, UniProt Q96GD4)
# Sequence (Q96GD4 whole entry): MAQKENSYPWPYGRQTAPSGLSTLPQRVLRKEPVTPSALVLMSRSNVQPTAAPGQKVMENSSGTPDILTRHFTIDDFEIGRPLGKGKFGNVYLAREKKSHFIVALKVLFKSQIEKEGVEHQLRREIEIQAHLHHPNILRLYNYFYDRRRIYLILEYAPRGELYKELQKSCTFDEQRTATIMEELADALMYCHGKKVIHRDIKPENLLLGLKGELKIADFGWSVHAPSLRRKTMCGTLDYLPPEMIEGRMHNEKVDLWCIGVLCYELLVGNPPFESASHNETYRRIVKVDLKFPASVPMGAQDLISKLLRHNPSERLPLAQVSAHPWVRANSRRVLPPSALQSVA
# Sequence (Q9NQS7 whole entry, further chain): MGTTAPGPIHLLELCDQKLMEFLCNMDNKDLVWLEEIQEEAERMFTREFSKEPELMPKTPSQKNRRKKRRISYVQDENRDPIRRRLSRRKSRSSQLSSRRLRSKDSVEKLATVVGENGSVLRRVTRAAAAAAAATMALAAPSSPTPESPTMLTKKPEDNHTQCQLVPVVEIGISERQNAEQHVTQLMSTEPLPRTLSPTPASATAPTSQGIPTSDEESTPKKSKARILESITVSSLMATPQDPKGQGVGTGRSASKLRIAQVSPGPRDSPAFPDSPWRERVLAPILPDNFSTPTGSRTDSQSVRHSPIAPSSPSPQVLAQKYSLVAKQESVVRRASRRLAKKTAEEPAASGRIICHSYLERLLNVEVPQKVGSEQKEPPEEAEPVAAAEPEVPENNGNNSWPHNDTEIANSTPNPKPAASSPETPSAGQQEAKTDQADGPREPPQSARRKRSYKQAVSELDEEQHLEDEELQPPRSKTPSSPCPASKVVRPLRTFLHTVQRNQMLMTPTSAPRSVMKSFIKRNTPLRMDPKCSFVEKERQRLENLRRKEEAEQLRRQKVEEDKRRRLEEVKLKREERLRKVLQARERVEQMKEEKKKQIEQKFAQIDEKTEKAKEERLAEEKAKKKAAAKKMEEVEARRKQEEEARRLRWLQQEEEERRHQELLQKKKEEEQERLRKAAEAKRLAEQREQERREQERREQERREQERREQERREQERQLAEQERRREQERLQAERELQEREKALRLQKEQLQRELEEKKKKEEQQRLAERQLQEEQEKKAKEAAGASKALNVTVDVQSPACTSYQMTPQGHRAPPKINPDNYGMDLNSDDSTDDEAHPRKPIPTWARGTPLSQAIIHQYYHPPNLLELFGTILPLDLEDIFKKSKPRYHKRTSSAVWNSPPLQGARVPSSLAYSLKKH
# method description: Inhibition of recombinant human full length C-terminal His6-tagged Aurora B//N-terminal GST-tagged INCENP (821-end residues) expressed in baculovirus infected sf21 cells using AKRRRLSSLRA substrate in presence of [gamma33P]ATP after 10 mins by scintillation counting method
observed property: pIC50
In simple prose, pIC50 is minus the logarithm base ten of a concentration in moles per litre.

Find the measured pIC50: item `CN(C)C(=O)c1cc2cnc(Nc3ccc(NC(=O)CCCCCCC(=O)NO)cc3)nc2n1C1CCCC1` , target or system Aurora kinase B/Inner centromere protein (Homo sapiens, UniProt Q96GD4).
7.72

----------
# method description: Aqueous solubility in pH 7.4 PBS buffer at 1 mg sonicated for 24 hrs and incubated under unstirred condition for 24 hrs by HPLC method
# Assay type: physicochemical
observed property: solubility at 24 h (µg/mL)
Write the value in µg/mL as a bare number.

Which measured solubility at 24 h value corresponds to `CN(C)C(=O)c1cc2cnc(Nc3ccc(NC(=O)CCCCCCC(=O)NO)cc3)nc2n1C1CCCC1` ?
0.35

----------
# experimental target: Aurora kinase A (Homo sapiens)
# Sequence (O14965 whole entry): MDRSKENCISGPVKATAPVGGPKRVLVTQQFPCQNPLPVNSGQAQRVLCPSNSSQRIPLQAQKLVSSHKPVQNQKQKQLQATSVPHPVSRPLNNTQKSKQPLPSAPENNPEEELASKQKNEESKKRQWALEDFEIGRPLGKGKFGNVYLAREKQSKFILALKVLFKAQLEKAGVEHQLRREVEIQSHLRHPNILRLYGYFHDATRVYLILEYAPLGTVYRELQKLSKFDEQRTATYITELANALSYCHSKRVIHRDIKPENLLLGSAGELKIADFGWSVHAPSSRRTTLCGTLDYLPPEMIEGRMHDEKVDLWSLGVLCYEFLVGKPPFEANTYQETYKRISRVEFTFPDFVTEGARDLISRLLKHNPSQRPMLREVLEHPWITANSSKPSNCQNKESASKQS
# method description: Inhibition of recombinant human full length C-terminal 6His-tagged Aurora-A expressed in baculovirus infected sf21 cells using kemptide substrate in presence of [gamma33P]ATP after 10 mins by scintillation counting method
observed property: pIC50
In simple prose, pIC50 is minus the logarithm base ten of a concentration in moles per litre.

Which measured pIC50 value corresponds to `CN(C)C(=O)c1cc2cnc(Nc3ccc(NC(=O)CCCCCCC(=O)NO)cc3)nc2n1C1CCCC1` ?
7.92

----------
Here's a batch of compounds along with measured IC50 for Histone deacetylase 1 (Homo sapiens, UniProt Q13547).

Reference set (2 entries):
Which measured IC50 value corresponds to `COC(=O)CCCCCCC(=O)Nc1ccc(Nc2ncc3cc(C(=O)N(C)C)n(C4CCCC4)c3n2)nc1` ?
> 5000 nM

Which measured IC50 value corresponds to `CN(C)C(=O)c1cc2cnc(Nc3ccc(C(=O)NCCCCCCCC(=O)NO)cc3)nc2n1C1CCCC1` ?
1.6 nM

More entries:
Which measured IC50 value corresponds to `CN(C)C(=O)c1cc2cnc(Nc3ccc(NC(=O)CCCCCCC(=O)O)cc3)nc2n1C1CCCC1` ?
> 5000 nM

----------
# experimental target: CDK4/Cyclin D3 (Homo sapiens)
# Sequence (P11802 whole entry): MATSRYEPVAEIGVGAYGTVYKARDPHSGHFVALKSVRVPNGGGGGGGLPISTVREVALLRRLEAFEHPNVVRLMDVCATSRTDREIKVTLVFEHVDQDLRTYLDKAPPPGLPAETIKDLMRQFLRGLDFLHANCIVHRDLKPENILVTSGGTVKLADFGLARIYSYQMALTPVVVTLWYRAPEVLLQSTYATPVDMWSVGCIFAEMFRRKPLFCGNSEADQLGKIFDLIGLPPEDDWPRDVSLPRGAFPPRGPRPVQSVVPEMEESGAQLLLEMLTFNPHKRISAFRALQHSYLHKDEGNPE
# Sequence (P30281 whole entry, further chain): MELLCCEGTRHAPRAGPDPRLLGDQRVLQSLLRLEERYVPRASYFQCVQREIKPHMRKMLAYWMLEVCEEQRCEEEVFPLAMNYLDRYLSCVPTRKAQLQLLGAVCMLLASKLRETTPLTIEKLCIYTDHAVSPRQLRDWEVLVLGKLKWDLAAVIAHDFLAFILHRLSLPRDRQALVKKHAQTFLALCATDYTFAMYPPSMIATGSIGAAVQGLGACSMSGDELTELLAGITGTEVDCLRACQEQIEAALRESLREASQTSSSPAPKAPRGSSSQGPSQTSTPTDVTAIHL
# method description: Inhibition of recombinant human full length N-terminal GST-tagged CDK4/Cyclin-D3 co-expressed in baculovirus infected sf21 cells using Rb substrate in presence of [gamma33P]ATP after 10 mins by scintillation counting method
observed property: IC50 (nM)
Write the value in nM as a bare number.

Which measured IC50 value corresponds to `CN(C)C(=O)c1cc2cnc(Nc3ccc(NC(=O)CCCCCCC(=O)O)cc3)nc2n1C1CCCC1` ?
18

More entries:
Which measured IC50 value corresponds to `CN(C)C(=O)c1cc2cnc(Nc3ccc(NC(=O)CCCCCC(=O)NO)cc3)nc2n1C1CCCC1` ?
10

Which measured IC50 value corresponds to `CN(C)C(=O)c1cc2cnc(Nc3ccc(C(=O)NCCCCCCC(=O)NO)cc3)nc2n1C1CCCC1` ?
12

Which measured IC50 value corresponds to `CN(C)C(=O)c1cc2cnc(Nc3ccc(NC(=O)CCCCC(=O)NO)cc3)nc2n1C1CCCC1` ?
11

Which measured IC50 value corresponds to `CN(C)C(=O)c1cc2cnc(Nc3ccc(CNC(=O)CCCCCCC(=O)NO)cc3)nc2n1C1CCCC1` ?
10

Which measured IC50 value corresponds to `CN(C)C(=O)c1cc2cnc(Nc3ccc(NC(=O)CCCCCCCO)cc3)nc2n1C1CCCC1` ?
10

Which measured IC50 value corresponds to `CN(C)C(=O)c1cc2cnc(Nc3ccc(C(=O)NCCCCCC(=O)NO)cc3)nc2n1C1CCCC1` ?
9.6

Which measured IC50 value corresponds to `COC(=O)CCCCCNC(=O)c1ccc(Nc2ncc3cc(C(=O)N(C)C)n(C4CCCC4)c3n2)cc1` ?
7.3

Which measured IC50 value corresponds to `CN(C)C(=O)c1cc2cnc(Nc3ccc(NC(=O)CCCCCCCC(=O)NO)cc3)nc2n1C1CCCC1` ?
8.1
